Give pIC50 for every item shown.
Molecular target: Neuronal acetylcholine receptor; alpha9/alpha10 (Homo sapiens, UniProt Q9GZZ6+Q9UGM1)
Sequence (Q9UGM1 whole entry): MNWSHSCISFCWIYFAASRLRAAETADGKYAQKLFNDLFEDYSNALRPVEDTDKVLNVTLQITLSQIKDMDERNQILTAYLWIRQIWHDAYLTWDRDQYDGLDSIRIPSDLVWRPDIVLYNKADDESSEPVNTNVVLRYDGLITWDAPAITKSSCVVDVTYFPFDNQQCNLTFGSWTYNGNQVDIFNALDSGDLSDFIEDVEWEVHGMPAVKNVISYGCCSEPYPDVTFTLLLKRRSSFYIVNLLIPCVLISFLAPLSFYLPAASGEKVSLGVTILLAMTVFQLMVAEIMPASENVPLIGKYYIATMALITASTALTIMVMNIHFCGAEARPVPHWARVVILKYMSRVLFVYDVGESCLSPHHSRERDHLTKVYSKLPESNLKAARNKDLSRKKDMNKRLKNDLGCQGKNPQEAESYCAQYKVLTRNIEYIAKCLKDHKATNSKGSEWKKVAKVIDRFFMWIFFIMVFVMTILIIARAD
Sequence (Q9GZZ6 whole entry): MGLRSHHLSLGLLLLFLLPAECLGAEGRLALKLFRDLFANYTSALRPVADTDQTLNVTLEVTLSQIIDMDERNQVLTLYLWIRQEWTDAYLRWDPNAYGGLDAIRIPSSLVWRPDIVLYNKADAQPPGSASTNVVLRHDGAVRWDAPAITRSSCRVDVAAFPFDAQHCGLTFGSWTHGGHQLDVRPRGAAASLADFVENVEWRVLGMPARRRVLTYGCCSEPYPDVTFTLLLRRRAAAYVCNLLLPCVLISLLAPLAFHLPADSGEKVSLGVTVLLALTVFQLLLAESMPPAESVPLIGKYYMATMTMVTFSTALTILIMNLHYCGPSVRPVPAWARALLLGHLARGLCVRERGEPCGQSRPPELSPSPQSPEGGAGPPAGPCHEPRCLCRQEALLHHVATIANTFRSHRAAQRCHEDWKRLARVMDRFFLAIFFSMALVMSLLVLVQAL
Assay: Inhibition of human alpha9alpha10 nAChR expressed in xenopus oocytes assessed as inhibition of Ach- induced response at -70 mV holding potential and measured for 1 to 5 days in presence of Ach stimulation by voltage-clamp based electrophysiological method
When answering, recall that pIC50 equals minus log10 of the concentration in mol/L, and write that number alone.

Request: Return reported pIC50; argument: C[C@@H](O)[C@@H]1NC(=O)[C@H]2NC(=O)[C@H](NC(=O)CN)CSSC[C@H](NC(=O)[C@H](CCCNC(=N)N)NC(=O)[C@@H]3CCCN3C(=O)[C@H](CC(=O)O)NC1=O)C(=O)N[C@@H](CCCNC(=N)N)C(=O)N[C@@H](Cc1ccc(O)c(I)c1)C(=O)N[C@@H](CCCN)C(=O)N[C@H](C(=O)N[C@H](CC(=O)N[C@@H](CCCN)C(=O)O)Cc1ccc(O)cc1)CSSC2(C)C
Result: 9.47

Request: Continue with C[C@@H](O)[C@@H]1NC(=O)[C@H]2NC(=O)[C@H](NC(=O)CN)CSSC[C@H](NC(=O)[C@H](CCCNC(=N)N)NC(=O)[C@@H]3CCCN3C(=O)[C@H](CC(=O)O)NC1=O)C(=O)N[C@@H](CCCNC(N)=O)C(=O)N[C@@H](Cc1ccc(O)c(I)c1)C(=O)N[C@@H](CCC(N)=O)C(=O)N[C@H](C(=O)N[C@@H](Cc1ccc(O)cc1)C(=O)O)CSSC2(C)C
Result: 8.89

Request: Continue with C[C@@H](O)[C@@H]1NC(=O)[C@H]2NC(=O)[C@H](NC(=O)CN)CSSC[C@H](NC(=O)[C@H](CCCNC(=N)N)NC(=O)[C@@H]3CCCN3C(=O)[C@H](CC(=O)O)NC1=O)C(=O)N[C@@H](CCCNC(=N)N)C(=O)N[C@@H](Cc1ccc(O)c(I)c1)C(=O)N[C@@H](CCCN)C(=O)N[C@H](C(=O)N[C@H](CC(=O)N[C@@H](CCC(=O)O)C(=O)O)Cc1ccc(O)cc1)CSSC2(C)C
Result: 9.40

Request: Continue with C[C@@H](O)[C@@H]1NC(=O)[C@H]2NC(=O)[C@H](NC(=O)CN)CSSC[C@H](NC(=O)[C@H](CCCNC(=N)N)NC(=O)[C@@H]3CCCN3C(=O)[C@H](CC(=O)O)NC1=O)C(=O)N[C@@H](CCCNC(=N)N)C(=O)N[C@@H](Cc1ccc(O)c(I)c1)C(=O)N[C@@H](CCCN)C(=O)N[C@H](C(=O)N[C@H](CC(=O)N[C@@H](CCCCN)C(=O)O)Cc1ccc(O)cc1)CSSC2(C)C
Result: 9.44

Request: Continue with C[C@@H](O)[C@@H]1NC(=O)[C@H]2NC(=O)[C@H](NC(=O)CN)CSSC[C@H](NC(=O)[C@H](CCCNC(=N)N)NC(=O)[C@@H]3CCCN3C(=O)[C@H](CC(=O)O)NC1=O)C(=O)N[C@@H](CCCNC(=N)N)C(=O)N[C@@H](Cc1ccc(O)c(I)c1)C(=O)N[C@@H](CCCN)C(=O)N[C@H](C(=O)N[C@H](CC(=O)N[C@@H](CCCNC(N)=O)C(=O)O)Cc1ccc(O)cc1)CSSC2(C)C
Result: 9.59

Request: Continue with C[C@@H](O)[C@@H]1NC(=O)[C@@H]2CSSC[C@@H](C(=O)N[C@@H](Cc3ccc(O)cc3)C(=O)O)NC(=O)[C@H](CCC(N)=O)NC(=O)[C@H](Cc3ccc(O)c(I)c3)NC(=O)[C@H](CCCNC(=N)N)NC(=O)[C@H](CSSC[C@@H](NC(=O)CN)C(=O)N2)NC(=O)[C@H](CCCNC(N)=O)NC(=O)[C@@H]2CCCN2C(=O)[C@H](CC(=O)O)NC1=O
Result: 8.85
